Data credit: patent US7554012B2

Biological target: purified PhnO protein (Escherichia coli, UniProt P16691, P2A)
Construct: made in house; host or cells: E. coli JM101 carrying pMON15032 (recA promoter, nalidixic acid induction)
Sequence (P16691 whole entry P2A): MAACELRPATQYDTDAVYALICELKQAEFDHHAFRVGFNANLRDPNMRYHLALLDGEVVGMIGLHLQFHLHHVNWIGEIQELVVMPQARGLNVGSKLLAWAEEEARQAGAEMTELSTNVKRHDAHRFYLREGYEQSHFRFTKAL
Test: AMPA transacylase acyl-CoA acyl donor specificity, HPLC
Type: biochemical, E. coli
Details: acyl donor 0.5 mM; 1 mM acetyl-CoA = 100% reference
Label fulfilled when % Activity is strictly below 1%; at or above that, label not fulfilled.

[[record]]
molecule = "CC(C)C(=O)SCCNC(=O)CCNC(=O)[C@H](O)C(C)(C)COP(=O)(O)OP(=O)(O)OC[C@H]1O[C@@H](n2cnc3c(N)ncnc32)[C@H](O)[C@@H]1OP(=O)(O)O"
classlabel = "fulfilled"

[[record]]
molecule = "C/C=C(\\C)C(=O)SCCNC(=O)CCNC(=O)[C@H](O)C(C)(C)COP(=O)(O)OP(=O)(O)OC[C@H]1O[C@@H](n2cnc3c(N)ncnc32)[C@H](O)[C@@H]1OP(=O)(O)O"
classlabel = "fulfilled"

[[record]]
molecule = "C/C=C/C(=O)SCCNC(=O)CCNC(=O)[C@H](O)C(C)(C)COP(=O)(O)OP(=O)(O)OC[C@H]1O[C@@H](n2cnc3c(N)ncnc32)[C@H](O)[C@@H]1OP(=O)(O)O"
classlabel = "fulfilled"


Prompt line: Please let me know if CC(=O)SCCNC(=O)CCNC(=O)[C@H](O)C(C)(C)COP(=O)(O)OP(=O)(O)OC[C@H]1O[C@@H](n2cnc3c(N)ncnc32)[C@H](O)[C@@H]1OP(=O)(O)O shows % Activity below 1%.
Response line: not fulfilled

Prompt line: Lab log: compare recorded % Activity with 1%; is it strictly lower for CCCCC(=O)SCCNC(=O)CCNC(=O)[C@H](O)C(C)(C)COP(=O)(O)OP(=O)(O)OC[C@H]1O[C@@H](n2cnc3c(N)ncnc32)[C@H](O)[C@@H]1OP(=O)(O)O ?
Response line: fulfilled

Prompt line: is_below(% Activity, 1%) for CCNC(=O)CCNC(=O)[C@H](O)C(C)(C)COP(=O)(O)OP(=O)(O)OC[C@H]1O[C@@H](n2cnc3c(N)ncnc32)[C@H](O)[C@@H]1OP(=O)(O)O ?
Response line: not fulfilled

Prompt line: # TODO verify % Activity < 1% strictly for this molecule: CC(C(=O)O)C(=O)SCCNC(=O)CCNC(=O)[C@H](O)C(C)(C)COP(=O)(O)OP(=O)(O)OC[C@H]1O[C@@H](n2cnc3c(N)ncnc32)[C@H](O)[C@@H]1OP(=O)(O)O (stereo partly shown)
Response line: not fulfilled

Prompt line: is_below(% Activity, 1%) for CCC(=O)SCCNC(=O)CCNC(=O)[C@H](O)C(C)(C)COP(=O)(O)OP(=O)(O)OC[C@H]1O[C@@H](n2cnc3c(N)ncnc32)[C@H](O)[C@@H]1OP(=O)(O)O ?
Response line: not fulfilled

Prompt line: In plain terms, does CC(C)(COP(=O)(O)OP(=O)(O)OC[C@H]1O[C@@H](n2cnc3c(N)ncnc32)[C@H](O)[C@@H]1OP(=O)(O)O)[C@@H](O)C(=O)NCCC(=O)NCCSC(=O)CCC(=O)O come in under 1% for % Activity?
Response line: not fulfilled

Prompt line: Please let me know if CC(C)(COP(=O)(O)OP(=O)(O)OC[C@H]1O[C@@H](n2cnc3c(N)ncnc32)[C@H](O)[C@@H]1OP(=O)(O)O)[C@@H](O)C(=O)NCCC(=O)NCCSC(=O)CCCC(=O)O shows % Activity below 1%.
Response line: fulfilled
